Ref: ChEMBL document CHEMBL4196071

Test: AUC (0 to t) in Sprague-Dawley rat at 20 mg/kg, ig by LC/MS/MS analysis
Format: ADME, organism-based
Conditions: in vivo, po
measured-quantity: AUC(0-t)

Prompt: Could you share which AUC(0-t) value was measured for O=C(O)C1CCc2c(c3cc(OCc4ccccc4)ccc3n2C(=O)c2ccc(Cl)cc2)C1 (stereo in doubt; 7a) ?
Response: 32000 ng·h/mL

----------
System: Mus musculus
Assay: Hypolipemic activity in db/db mouse assessed as plasma fasting triglyceride level at 30 mg/kg, po treated for 3 consecutive weeks (reference value: 0.70 to 0.97 mM)
Assay type: functional
measured-quantity: Activity (mM)
Expressed in mM, but write only the number.

Prompt: What reported Activity corresponds to CCc1ccc(CCOc2ccc(CC3SC(=O)NC3=O)cc2)nc1 (centres undefined) on Mus musculus?
Response: 0.51

Prompt: Provide value of Activity for this record tested with Mus musculus: O=C(O)C1CCc2c(c3cc(OCc4ccccc4)ccc3n2C(=O)c2ccc(Cl)cc2)C1 (stereo in doubt; 7a)
Response: 0.54

Prompt: Give Activity (Mus musculus) of the following compound: Cc1c(CC(=O)O)c2cc(OCc3ccccc3)ccc2n1C(=O)c1ccc(Cl)cc1
Response: 0.79

Prompt: Test system Mus musculus; read-out Activity; what value for O=C(O)C1CCc2c(c3cc(OCc4ccccc4)ccc3n2S(=O)(=O)c2ccc(Cl)cc2)C1 (centres undefined) ?
Response: 0.99

----------
Biological target: AMP-activated protein kinase, AMPK (Homo sapiens) (UniProt P54646+O43741+P54619+Q9UGJ0+Q9Y478+Q13131+Q9UGI9)
Test: Activation of AMPK in human HepG2 cells assessed as induction of glucose consumption at 0.1 uM treated over 24 hrs by glucose oxidase method relative to control
Format: cell-based
Give measured Activity for each item. Keep answers brief.
Reply numerically in %, unit not repeated.

Prompt: Bench note: what Activity did O=C(O)C1CCc2[nH]c3ccc(OCc4ccccc4)cc3c2C1 (configuration not stated) show?
Response: 29

Prompt: Name the reported Activity value associated with the molecule O=C(O)C1CCc2c(c3cc(OCc4ccccc4)ccc3n2C(=O)c2ccc(Cl)cc2)C1 (single isomer, unassigned; (-))
Response: 12.9

Prompt: Name the recorded Activity for O=C(O)C1CCc2c(c3cc(OCc4ccccc4)ccc3n2C(=O)c2ccc(Cl)cc2)C1 (stereo in doubt; (+)-7a) .
Response: 1.79

Prompt: Given the entry O=C(O)C1CCc2c(c3cc(OCc4ccccc4)ccc3n2C(=O)c2ccc(Cl)cc2)C1 (stereo in doubt; 7a) , report its measured Activity.
Response: 15.5

Prompt: Query: Activity; subject: N#Cc1ccc(COc2ccc3c(c2)c2c(n3C(=O)c3ccc(Cl)cc3)CCC(C(=O)O)C2)cc1 (configuration not stated)
Response: 9.65

Prompt: Requested field: Activity. Item: O=C(O)C1CCc2c(c3cc(OCc4ccc(F)cc4)ccc3n2C(=O)c2ccc(Cl)cc2)C1 (configuration not stated)
Response: 0.11

Prompt: Please give the measured Activity for this molecule: CC(Oc1ccc2c(c1)c1c(n2C(=O)c2ccc(Cl)cc2)CCC(C(=O)O)C1)c1ccccc1 (configuration not stated)
Response: 4.89

----------
Assay: AUC (0 to t) in Sprague-Dawley rat at 5 mg/kg, iv by LC/MS/MS analysis
Format: ADME, organism-based
Conditions: in vivo
measured-quantity: AUC(0-t) (ng·h/mL)
Answer in ng·h/mL, number only, no unit symbol.

Prompt: Looking for the measured AUC(0-t) of O=C(O)C1CCc2c(c3cc(OCc4ccccc4)ccc3n2C(=O)c2ccc(Cl)cc2)C1 (stereo in doubt; 7a) , can you help?
Response: 39600
